Consider molecules characterized by their IC50 with human Cereblon WT GST-tagged protein (Homo sapiens, UniProt Q96SW2).
Sequence (Q96SW2 whole entry): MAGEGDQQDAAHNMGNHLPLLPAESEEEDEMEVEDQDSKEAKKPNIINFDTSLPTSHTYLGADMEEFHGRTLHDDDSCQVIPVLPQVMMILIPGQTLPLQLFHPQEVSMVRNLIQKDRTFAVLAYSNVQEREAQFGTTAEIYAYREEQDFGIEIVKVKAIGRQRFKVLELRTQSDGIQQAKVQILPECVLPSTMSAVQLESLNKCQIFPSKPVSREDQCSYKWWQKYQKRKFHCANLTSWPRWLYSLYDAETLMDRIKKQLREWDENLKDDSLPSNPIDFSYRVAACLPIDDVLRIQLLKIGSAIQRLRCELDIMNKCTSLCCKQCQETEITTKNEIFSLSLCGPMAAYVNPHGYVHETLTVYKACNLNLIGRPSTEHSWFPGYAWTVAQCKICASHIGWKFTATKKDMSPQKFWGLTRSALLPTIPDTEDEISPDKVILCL

O=C1CCC(c2ccc(CN3CCN(C4CCN(c5ccc([C@@H]6c7ccc(O)cc7CC[C@@H]6c6ccccc6)cc5)CC4)CC3)cc2F)C(=O)N1 (stereo partly drawn)	0.5 to 1 µM

Asked: Field: IC50 (human Cereblon WT GST-tagged protein (Homo sapiens, UniProt Q96SW2)). Entry: O=C1CCN(c2ccc(CN3CCN(C4CCN(c5ccc([C@@H]6c7ccc(O)cc7CC[C@@H]6c6ccccc6)cc5)CC4)CC3)c(F)c2)C(=O)N1
Given back: 1 to 1.9 µM

Asked: So what IC50 did O=C1CCN(c2ccc(CN3CCN(C4CCN(c5ccc([C@@H]6c7ccc(O)cc7CC[C@@H]6c6ccccc6)cc5)CC4)CC3)cc2F)C(=O)N1 get with human Cereblon WT GST-tagged protein (Homo sapiens, UniProt Q96SW2)?
Given back: 1 to 1.9 µM

Asked: Give IC50 (human Cereblon WT GST-tagged protein (Homo sapiens, UniProt Q96SW2)) of the following molecule: O=C1CCN(c2cccc(CN3CCN(C4CCN(c5ccc([C@@H]6c7ccc(O)cc7CC[C@@H]6c6ccccc6)cc5)CC4)CC3)c2)C(=O)N1
Given back: 0.5 to 1 µM

Asked: Form field: IC50 recorded for O=C1CCC(c2ccc(CN3CCN(C4CCN(c5ccc([C@@H]6c7ccc(O)cc7CC[C@@H]6c6ccccc6)cc5)CC4)CC3)cc2)C(=O)N1 (stereo partly drawn) with human Cereblon WT GST-tagged protein (Homo sapiens, UniProt Q96SW2) (enter value)
Given back: 1 to 1.9 µM

Asked: Test system human Cereblon WT GST-tagged protein (Homo sapiens, UniProt Q96SW2); read-out IC50; what value for CC[C@@H]1[C@H](F)C(=O)N[C@@H]1COc1nccc2cc(C(N)=O)c(OC)cc12 [PF06650833, reference compound] ?
Given back: > 10 µM
